# TEST_METHOD_NOTES: Drug level in PS2APP transgenic mouse brain at 20 mg/kg, po after 2 hrs
# Format: ADME, organism-based
# Design: dose 20 mg/kg, route oral
# CONDITION_PARAMETERS: read-out: Drug uptake
READOUT_KIND: concentration at 2 h (ng/g)
The reply should be a number in ng/g, with the unit left off.

# input Using the record for `COc1ccc(CN([C@@H]2CC(F)(F)CCNC2=O)S(=O)(=O)c2ccc(Cl)cc2)cn1` , report its concentration at 2 h.
# output 60

* * *

microsomal CLint values by entry
# TEST_METHOD_NOTES: Clearance in mouse microsomes assessed per mg of protein
# Assay type: ADME, Liver, Microsome
Kindly provide the numeric value in µL/min/mg only, without the unit symbol.

# input Suppose we examine the molecule `COc1ccc(CN([C@@H]2CC(F)(F)CCNC2=O)S(=O)(=O)c2ccc(Cl)cc2)cn1` ; what microsomal CLint value has been reported?
# output 72

More entries:
# input Given the molecule `COc1ccc(CN([C@@H]2CC(F)(F)CCNC2=O)S(=O)(=O)c2ccc(Cl)cc2)c(F)c1` , what is its reported microsomal CLint?
# output 105

# input Can you handle CC1(C)CCNC(=O)C(N(Cc2ccc(C(=O)NC3CC3)cc2)S(=O)(=O)c2ccc(Cl)cc2)C1 (stereo not drawn) next?
# output 191

* * *

# microsomal CLint listing for each entry below
# TEST_METHOD_NOTES: Clearance in mouse microsomes assessed per mg of protein
# Assay type: ADME, Liver, Microsome
Just the number please, in µL/min/mg, no unit attached.

Here is how some compounds turned out for microsomal CLint.
# input Give its microsomal CLint value. Item: `O=C(NC1CC1)c1ccc(CN([C@@H]2CCC(F)(F)CNC2=O)S(=O)(=O)c2ccc(Cl)cc2)cc1`
# output 5.4

# input Then this compound: O=C(NC1CC1)c1ccc(CN(C2CC(C(F)(F)F)CCNC2=O)S(=O)(=O)c2ccc(Cl)cc2)cc1 (racemic)
# output 39

# input Next record, please: `CC(C)C[C@H](C(N)=O)N(Cc1ccc2c(c1)OCO2)S(=O)(=O)c1ccc(Cl)cc1`
# output 282

# input Likewise for `COc1ccc(CN([C@@H]2CC(F)(F)CCNC2=O)S(=O)(=O)c2ccc(Cl)cc2)c(F)c1F` ?
# output 121

# input Again, but for CC(C)(C)C1CCNC(=O)C(N(Cc2ccc(C(=O)NC3CC3)cc2)S(=O)(=O)c2ccc(Cl)cc2)C1 (racemic)
# output 110

# input Thanks! And `O=C(NC1CC1)c1ccc(CN([C@@H]2CC(F)(F)CCNC2=O)S(=O)(=O)c2ccc(Cl)cc2)cc1` ?
# output 2.2

# input Item: CC(C)C1CCNC(=O)C(N(Cc2ccc(C(=O)NC3CC3)cc2)S(=O)(=O)c2ccc(Cl)cc2)C1 (racemic)
# output 203

Field: next compound
# input What value of microsomal CLint has been recorded for this entry: `CC1(C)CCNC(=O)[C@H](N(Cc2ccc(C(=O)NC3CC3)cc2)S(=O)(=O)c2ccc(Cl)cc2)C1`
# output 655

* * *

# TEST_METHOD_NOTES: Clearance in human microsomes assessed per mg of protein
# Type: ADME, Microsome
READOUT_KIND: microsomal CLint (µL/min/mg)
Lab book: enter the figure in µL/min/mg, no units written.

Before answering, review these 5 worked examples.
# input I would be grateful if you could share the reported microsomal CLint for `COc1ccc(CN([C@@H]2CC(F)(F)CCNC2=O)S(=O)(=O)c2ccc(Cl)cc2)cn1` .
# output 9

# input Do the same for `COc1ccc(CN([C@@H]2CC(F)(F)CCNC2=O)S(=O)(=O)c2ccc(Cl)cc2)c(F)c1` please
# output 13

# input `COc1ccc(CN([C@@H]2CC(F)(F)CCNC2=O)S(=O)(=O)c2ccc(Cl)cc2)c(F)c1F` , same question.
# output 19

# input # repeat for `CC(C)C[C@H](C(N)=O)N(Cc1ccc2c(c1)OCO2)S(=O)(=O)c1ccc(Cl)cc1`
# output 34

# input Same question, O=C(NC1CC1)c1ccc(CN(C2CC(C(F)(F)F)CCNC2=O)S(=O)(=O)c2ccc(Cl)cc2)cc1 (racemic) this time
# output 19

Continuing:
# input Item under review: `CC1(C)CCNC(=O)[C@H](N(Cc2ccc(C(=O)NC3CC3)cc2)S(=O)(=O)c2ccc(Cl)cc2)C1` . Reported microsomal CLint?
# output 36

# input Same for CC(C)C1CCNC(=O)C(N(Cc2ccc(C(=O)NC3CC3)cc2)S(=O)(=O)c2ccc(Cl)cc2)C1 (racemic)
# output 51

# input Cool, now `O=C(NC1CC1)c1ccc(CN([C@@H]2CC(F)(F)CCNC2=O)S(=O)(=O)c2ccc(Cl)cc2)cc1`
# output 1.9

# input CC(C)(C)C1CCNC(=O)C(N(Cc2ccc(C(=O)NC3CC3)cc2)S(=O)(=O)c2ccc(Cl)cc2)C1 (racemic) , same question.
# output 93

# input Next entry: CC1(C)CCNC(=O)C(N(Cc2ccc(C(=O)NC3CC3)cc2)S(=O)(=O)c2ccc(Cl)cc2)C1 (stereo not given)
# output 45

* * *

Recorded pIC50, one value per entry.
# TARGET_ENTITY: Gamma-secretase
# TEST_METHOD_NOTES: Inhibition of human gamma secretase in HEK293 cells assessed as reduction of amyloid beta level by ELISA
// scale note: pIC50 = -log10(conc_M); give the bare number

Record excerpt, results attached:
# input Look up pIC50: `NC(=O)c1ccc(CN([C@@H]2CCCCNC2=O)S(=O)(=O)c2ccc(Cl)cc2)cc1`
# output 7.10

# input What about CC(C)(C)C1CCNC(=O)C(N(Cc2ccc(C(=O)NC3CC3)cc2)S(=O)(=O)c2ccc(Cl)cc2)C1 (racemic) ?
# output 6.92

# input And what about the compound `O=C(O)CCc1ccc(CN([C@@H]2CCCCNC2=O)S(=O)(=O)c2ccc(Cl)cc2)cc1` ?
# output 6.85

Continuing:
# input Which measured pIC50 value corresponds to COc1ccc(CN(C2CCCCNC2=O)S(=O)(=O)c2ccc(Cl)cc2)c(F)c1 (centres undefined) ?
# output 6.82
